Listed here: items and their measured IC50.
Tested on: HL-60
experiment_description: Growth inhibition of human HL60 cells
Format: functional, cell-based
Respond with the figure and its unit, in that order.

{"compound": "Cc1nc(Nc2ncc(C(=O)Nc3c(C)cccc3Cl)s2)cc(N2CCN(CCO)CC2)n1 [DASATINIB]", "IC50": "0.11 nM"}
{"compound": "Cc1nc(Nc2ncc(C(=O)Nc3c(C)cccc3Cl)s2)cc(N2CCN(CCN)CC2)n1", "IC50": "0.25 nM"}

For the next question, use this compound.
C=CC(=O)NCCN1CCN(c2cc(Nc3ncc(-c4nnc(-c5c(C)cccc5Cl)o4)s3)nc(C)n2)CC1 yielded IC50 of 160 nM
